Where do the numbers come from? From patent US20230243070A1.

# measuredTarget: T1, NYESOpMHC (HLA-A*0201:NYESO1-9V), biotinylated recombinant complex (human)
# T1 construct: also called NY-ESO-1 peptide-MHC complex
# assayProcedure: SPR (ProteOn), biotinylated pMHC on NLC chip, PBS with Tween
observedProperty: Kd (pM)
Numbers only here, please. The scale is pM.

[[record]]
binder = "DARPin® protein #31 (designed binder) MRGSHHHHHHGSDLGKKLLQAARAGQLDEVRELLKAGADVNAKDATGQTPLHVAAFRGHLEIVEVLLKAGADVNAKDKAGYTPLHIAAYAGHLEIVEVLLKAGADVNAKDHAGWTPLHLAAILGHLEIVEVLLKAGADVNAQDKSGKTPADLAARAGHQDIAEVLQKAA"
testvalue = 1320


Query: I am curious: what Kd value has been reported for DARPin® protein #29 (designed binder) MRGSHHHHHHGSDLGKKLLQAARAGQLDEVRELLKAGADVNAKDRAGSTPLHLAAFRGHLEIVEVLLKAGADVNAKDAAGYTPLHLAALYGHLEIVEVLLKAGADVNAKDHAGSTPLHLAALAGHLEIVEVLLKAGADVNAQDKSGKTPADLAARAGHQDIAEVLQKAA ?
Result: 635
